PROCEDURE TEXT: chemical genetic growth profiling, strain panel (AID 1159580);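 note: tested at 20 µM; growth read once vehicle control cultures reached saturation at 30 °C; lower values mean less growth of the strain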
COND: S. cerevisiae deletion strains, growth OD, locus YPL078C, strain atp4
In all, about 5,500 compounds went through this assay and about 2,000 (36%) were called active. Not shown: some 18% with an inconclusive outcome. Cut-off read from the data, not from the text of the source: active = normalized growth mostly below about 0.91 (no sharp cut-off); inconclusive = no clear call, values can overlap the other calls; inactive = mostly above about 0.92. Some of the results follow.
I would appreciate it if you answered using one of these outcomes: active, inactive

Here's what some known entries look like.
Problem: What did the test return for "N=C(N)c1ccc(OCCCCCOc2ccc(C(=N)N)cc2)cc1" ?
Solution: inactive

Problem: Likewise for "CC(=O)NCc1c(I)c(NC(C)=O)c(I)c(C(=O)O)c1I" ?
Solution: inactive

Problem: Also check "O=c1oc2cc(O)ccc2s1"
Solution: inactive

Problem: Please do the same for "COc1ccc2c(c1)c(CC(=O)OCC(=O)O)c(C)n2C(=O)c1ccc(Cl)cc1" as well.
Solution: inactive

Problem: Try the compound "COc1cc(N)c(Cl)cc1C(=O)NC1CCN(Cc2ccccc2)CC1"
Solution: inactive

Further cases:
Problem: Entry "NNC(=O)c1ccncc1" : call = ?
Solution: inactive

Problem: Subsequent entry: "O=C1C(O)=C(O)C(=O)C(O)=C1O"
Solution: inactive

Problem: Quick one: "O=c1ccc2ccc(O)cc2o1"
Solution: inactive

Problem: Moving on to the next compound: "CCCOc1ccccc1-c1nc2n[nH]nc2c(=O)[nH]1"
Solution: inactive

Problem: Another compound: "Cc1cc(-n2c(=O)[nH]c(=O)n(C)c2=O)ccc1Oc1ccc(SC(F)(F)F)cc1"
Solution: active

Problem: Follow-up item: "Nc1ccc(S(=O)(=O)c2ccc(N)cc2)cc1"
Solution: inactive

Problem: Next entry: "COc1ccc2c(c1)c(CC(=O)O)c(C)n2C(=O)c1ccc(Cl)cc1"
Solution: inactive

src = PubChem BioAssay AID1159580
